system name: NLRP3 (Homo sapiens, UniProt Q96P20)
Construct: endogenous in cells
Sequence (Q96P20 whole entry): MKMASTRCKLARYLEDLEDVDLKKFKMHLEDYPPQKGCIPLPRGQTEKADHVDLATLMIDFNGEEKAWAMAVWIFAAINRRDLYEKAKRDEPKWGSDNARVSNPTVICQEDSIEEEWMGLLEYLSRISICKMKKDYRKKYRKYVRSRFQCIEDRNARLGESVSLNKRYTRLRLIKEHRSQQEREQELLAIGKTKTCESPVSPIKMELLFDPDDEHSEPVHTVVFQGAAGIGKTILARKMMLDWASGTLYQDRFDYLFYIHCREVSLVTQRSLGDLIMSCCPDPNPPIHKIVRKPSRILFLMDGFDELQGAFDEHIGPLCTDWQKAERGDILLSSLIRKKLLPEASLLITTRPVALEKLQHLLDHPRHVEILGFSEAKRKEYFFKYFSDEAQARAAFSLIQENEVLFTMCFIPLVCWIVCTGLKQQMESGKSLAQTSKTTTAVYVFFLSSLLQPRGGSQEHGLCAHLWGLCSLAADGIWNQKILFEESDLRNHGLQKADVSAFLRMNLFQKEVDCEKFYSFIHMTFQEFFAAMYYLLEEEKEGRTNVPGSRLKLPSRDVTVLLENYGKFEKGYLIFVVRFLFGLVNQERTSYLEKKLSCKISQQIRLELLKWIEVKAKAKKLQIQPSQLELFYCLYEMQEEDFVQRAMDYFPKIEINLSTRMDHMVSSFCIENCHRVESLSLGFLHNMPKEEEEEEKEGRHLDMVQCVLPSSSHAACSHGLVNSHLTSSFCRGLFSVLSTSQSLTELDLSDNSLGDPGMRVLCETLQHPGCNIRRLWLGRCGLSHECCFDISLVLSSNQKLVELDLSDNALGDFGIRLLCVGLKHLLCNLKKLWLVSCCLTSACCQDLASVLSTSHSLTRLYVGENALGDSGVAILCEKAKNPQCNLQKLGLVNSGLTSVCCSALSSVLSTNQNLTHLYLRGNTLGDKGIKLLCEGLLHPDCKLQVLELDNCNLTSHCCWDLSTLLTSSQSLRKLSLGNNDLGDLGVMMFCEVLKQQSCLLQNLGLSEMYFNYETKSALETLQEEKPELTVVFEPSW
protocol summary: IC50 of NLRP3 inhibitors in reducing IL-1β secretion by THP-1 cells (PMA, LPS, nigericin; ELISA)
measurement setup: compound + nigericin 1 h
readout kind: IC50 (nM)

These recorded examples may help you get a feel for the data.
Cc1cc(Cl)cc(O)c1-c1nnc(NCC(C)(C)O)c2cc(-n3nccn3)ccc12 [Compound 028]    35
CC#Cc1ccc2c(-c3ccc(Cl)cc3O)nnc(N[C@@H]3CC(=O)N(CCO)C3)c2c1 [Compound 073]    51
Cc1cc(Cl)cc(O)c1-c1nnc(NCC(C)(C)O)c2cc(-c3cnn(C4CC4)c3)ccc12 [Compound 039]    73
NC(=O)CN1CCC[C@@H](Nc2nnc(-c3ccc(Cl)cc3O)c3ccncc23)C1 [Compound 009]    28
CC(C(=O)NC1CC1)N1CCC[C@@H](Nc2nnc(-c3ccc(Cl)cc3O)c3ccncc23)C1 (mixture of isomers) [Compound 041]    14

[A] CC(=O)c1ccc2c(-c3ccc(C(F)(F)F)cc3O)nnc(N[C@@H]3CCCC[C@H]3O)c2c1 [Compound 081]
[B] O=C(C1CC1)N1CCC[C@@H](Nc2nnc(-c3ccc(Cl)cc3O)c3ccncc23)C1 [Compound 006]
Smaller IC50 value? Options are A and B Return value: the label identifying the chosen record.
A
(A: 5.3 nM, B: 12 nM)

[1] CC#Cc1ccc2c(-c3c(C)cc(Cl)cc3O)nnc(NCC(C)(C)O)c2c1 [Compound 024]
[2] CCn1cc(-c2ccc3c(-c4c(C)cc(Cl)cc4O)nnc(NCC(C)(C)O)c3c2)cn1 [Compound 051]
[3] CC(=O)c1ccc2c(-c3ccc(C(F)(F)F)cc3O)nnc(NC[C@H](O)CO)c2c1 [Compound 082]
[4] CC#Cc1ccc2c(-c3ccc(Cl)cc3O)nnc(N[C@@H]3CCCN(CCO)C3=O)c2c1 [Compound 075]
[5] CC(C)(O)CNc1nnc(-c2ccc(Cl)cc2O)c2ccc(C#N)cc12 [Compound 001]
Falling order of IC50, please. Form field (ranking): labels in requested order.
5, 2, 3, 1, 4

[I] COC(=O)N1CCC[C@@H](Nc2nnc(-c3ccc(Cl)cc3O)c3ccncc23)C1 [Compound 010]
[II] Cn1cc(-c2ccc3c(-c4ccc(Cl)cc4O)nnc(NCC(C)(C)O)c3c2)cn1 [Compound 004]
Please tell me which of the two, I or II , has the higher reported IC50 value. When you have decided, please share the label of that item.
II
